// provenance: paper PMC5550016

Target: purified recombinant urease from H. pylori (Helicobacter pylori, UniProt B5Z674)
Construct: plasmid pGEM::ureOP, which encodes the entire urease gene cluster, was used to produce recombinant H. pylori urease; made in house; host or cells: E. coli Rosetta2 (DE3) + pGEM::ureOP
Sequence (B5Z674 whole entry, looked up): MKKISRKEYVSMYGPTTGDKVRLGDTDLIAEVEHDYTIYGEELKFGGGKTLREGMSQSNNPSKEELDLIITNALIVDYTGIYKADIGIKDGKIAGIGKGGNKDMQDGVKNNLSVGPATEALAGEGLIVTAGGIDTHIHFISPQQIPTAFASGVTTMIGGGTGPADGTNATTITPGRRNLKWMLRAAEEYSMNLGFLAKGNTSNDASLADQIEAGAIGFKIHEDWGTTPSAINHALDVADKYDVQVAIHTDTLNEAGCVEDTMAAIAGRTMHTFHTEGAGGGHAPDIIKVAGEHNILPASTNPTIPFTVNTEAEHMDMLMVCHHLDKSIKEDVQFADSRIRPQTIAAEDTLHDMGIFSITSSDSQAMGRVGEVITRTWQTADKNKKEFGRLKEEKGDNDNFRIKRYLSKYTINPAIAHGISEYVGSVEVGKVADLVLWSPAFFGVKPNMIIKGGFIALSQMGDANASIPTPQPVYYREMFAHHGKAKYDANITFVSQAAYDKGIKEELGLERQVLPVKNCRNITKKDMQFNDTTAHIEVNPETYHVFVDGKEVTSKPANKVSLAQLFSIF
Experiment: Inhibition of purified recombinant H. pylori urease (phenol-hypochlorite, Lineweaver-Burk)
Format: biochemical
Details: Ki, 50 mM phosphate buffer pH 7.5, 37°C, 0.1–2.5 mM urea; competitive reversible inhibition
pKi: −log10 of the molar value.
Parameter threshold = 4. Response is 1 when pKi meets or exceeds it, else -1.

Sample answers from the record:
>  <MOL>
CNCP(C)(=O)O

>  <TESTED_TARGET>
purified recombinant urease from H. pylori (Helicobacter pylori, UniProt B5Z674)

>  <LABEL>
1

$$$$
>  <MOL>
CCCCNCP(=O)(O)CN

>  <TESTED_TARGET>
purified recombinant urease from H. pylori (Helicobacter pylori, UniProt B5Z674)

>  <LABEL>
1

$$$$
>  <MOL>
NCP(=O)(O)CN

>  <TESTED_TARGET>
purified recombinant urease from H. pylori (Helicobacter pylori, UniProt B5Z674)

>  <LABEL>
1

$$$$
>  <MOL>
CNCP(=O)(O)CN

>  <TESTED_TARGET>
purified recombinant urease from H. pylori (Helicobacter pylori, UniProt B5Z674)

>  <LABEL>
1

$$$$
>  <MOL>
CN(Cc1ccccc1)CP(=O)(O)CN

>  <TESTED_TARGET>
purified recombinant urease from H. pylori (Helicobacter pylori, UniProt B5Z674)

>  <LABEL>
1

$$$$
>  <MOL>
O=P(O)(CNCc1ccccc1)CNCc1ccccc1

>  <TESTED_TARGET>
purified recombinant urease from H. pylori (Helicobacter pylori, UniProt B5Z674)

>  <LABEL>
1

$$$$
>  <MOL>
CC(C)CNCP(=O)(O)CN

>  <TESTED_TARGET>
purified recombinant urease from H. pylori (Helicobacter pylori, UniProt B5Z674)

>  <LABEL>
-1

$$$$
>  <MOL>
CCCNCP(=O)(O)CN

>  <TESTED_TARGET>
purified recombinant urease from H. pylori (Helicobacter pylori, UniProt B5Z674)

>  <LABEL>
1

$$$$
>  <MOL>
CN(C)CP(C)(=O)O

>  <TESTED_TARGET>
purified recombinant urease from H. pylori (Helicobacter pylori, UniProt B5Z674)

>  <LABEL>
1

$$$$
>  <MOL>
CCCCCCNCP(=O)(O)CO

>  <TESTED_TARGET>
purified recombinant urease from H. pylori (Helicobacter pylori, UniProt B5Z674)

>  <LABEL>
1

$$$$

Reported pKi reaches at least 4 for CCCCCCCNCP(=O)(O)CN ?
-1

What would you report for CCCCCNCP(=O)(O)CN ?
1

* * *

Molecular target: urease in intact H. pylori J99 (Helicobacter pylori)
Construct: In the intact H. pylori J99 cells, the urease susceptibility profile was similar to that of E. coli (pGEM::ureOP); endogenous in cells
Experiment: Urease inhibition in whole cells of H. pylori J99
Type: cell-based
Conditions: cells grown without urea; 2 h of preincubation with inhibitors in PBS under microaerobic conditions; read-out: IC502h PBS
METRIC_NAME: pIC50
Numbers only, as −log10 of the molar value.

>  <COMPOUND>
CCCCCCNCP(=O)(O)CN [Compound 13]

>  <pIC50>
3.13

$$$$
>  <COMPOUND>
CNCP(=O)(O)CN [Compound 7]

>  <pIC50>
3.38

$$$$
>  <COMPOUND>
CC(C)CNCP(=O)(O)CN [Compound 10]

>  <pIC50>
3.01

$$$$

Answer for every listed entry: what is its pIC50? The entries follow.
1. NCP(=O)(O)CN [Compound 6, Bis(aminomethyl)phosphinic acid]
2. CCCNCP(=O)(O)CN [Compound 9]
3. CNCP(=O)(O)CO [Compound 4]
4. CCCCNCP(=O)(O)CN [Compound 11]
5. CCCCCCCCNCP(=O)(O)CN [Compound 15]
6. CC(=O)NO [Compound 24, acetohydroxamic acid, reference compound]

[3.21, 3.05, 3.17, 3.03, 3.20, 3.81]

* * *

Assignment: determine reported IC50 for the given compounds.
Molecular target: urease in intact H. pylori J99 (Helicobacter pylori)
Construct: In the intact H. pylori J99 cells, the urease susceptibility profile was similar to that of E. coli (pGEM::ureOP); endogenous in cells
Test: Urease inhibition in whole cells of H. pylori J99
Assay type: cell-based
Details: cells grown with urea; without preincubation; read-out: IC500

Examples with their reported IC50 follow.
>  <COMPOUND>
NCP(=O)(O)CNCc1ccccc1

>  <IC50>
> 2000 µM

$$$$
>  <COMPOUND>
CNCP(C)(=O)O

>  <IC50>
597 µM

$$$$
>  <COMPOUND>
CCCCCCCCNCP(=O)(O)CN

>  <IC50>
1010 µM

$$$$
>  <COMPOUND>
O=P(O)(CNCc1ccccc1)CNCc1ccccc1

>  <IC50>
> 2000 µM

$$$$
>  <COMPOUND>
CCCCCNCP(=O)(O)CN

>  <IC50>
813 µM

$$$$
>  <COMPOUND>
CNCP(=O)(O)CNC

>  <IC50>
443 µM

$$$$

Answer for every listed entry: what is its IC50? The entries follow.
1. NCP(=O)(O)CN1CCCCC1
2. CNCP(=O)(O)CN

1: > 2000 µM; 2: > 2000 µM

Answer for every listed entry: what is its IC50? The entries follow.
1. CCCCCCNCP(=O)(O)CN
2. CN(C)CP(C)(=O)O
3. NCP(=O)(O)CNC1CCCCC1
4. CN(C)CP(=O)(O)CN(C)C
5. CNCP(=O)(O)O
6. CCCCNCP(=O)(O)CN
7. CC(C)CNCP(=O)(O)CN
8. CC(=O)NO [Compound 24, acetohydroxamic acid, reference compound]

1. 510 µM
2. 640 µM
3. > 2000 µM
4. > 2000 µM
5. 400 µM
6. 733 µM
7. > 2000 µM
8. 1670 µM

* * *

Molecular target: urease in intact E. coli (pGEM::ureOP) cells (Helicobacter pylori)
Construct: plasmid pGEM::ureOP, which encodes the entire urease gene cluster, was used to produce recombinant H. pylori urease; expressed in transfected cells; host or cells: E. coli Rosetta2 (DE3) transformed with pGEM::ureOP
Sequence (B5Z674 whole entry, looked up): as above
Assay: Urease inhibition in whole cells of E. coli + pGEM::ureOP
Assay type: cell-based
Details: 2 h of preincubation with inhibitors in PBS; IC50 exceeding 2 mM considered not active; read-out: IC502h PBS
METRIC_NAME: IC50 (µM)
One number for each entry, in µM.

# get_value(readout='IC50', item= CC(=O)NO [Compound 24, acetohydroxamic acid, reference compound] )
96

* * *

Target: urease in intact H. pylori J99 (Helicobacter pylori, UniProt P69997)
Construct: In the intact H. pylori J99 cells, the urease susceptibility profile was similar to that of E. coli (pGEM::ureOP); endogenous in cells
Sequence (Q9ZMZ4 whole entry): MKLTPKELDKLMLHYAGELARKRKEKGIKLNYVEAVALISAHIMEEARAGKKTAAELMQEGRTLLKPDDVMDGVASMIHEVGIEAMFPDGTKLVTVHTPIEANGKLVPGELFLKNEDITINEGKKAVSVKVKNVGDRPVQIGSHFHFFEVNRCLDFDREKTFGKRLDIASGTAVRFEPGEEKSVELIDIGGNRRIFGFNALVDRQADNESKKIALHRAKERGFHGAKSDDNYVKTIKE
Sequence (P69997 whole entry): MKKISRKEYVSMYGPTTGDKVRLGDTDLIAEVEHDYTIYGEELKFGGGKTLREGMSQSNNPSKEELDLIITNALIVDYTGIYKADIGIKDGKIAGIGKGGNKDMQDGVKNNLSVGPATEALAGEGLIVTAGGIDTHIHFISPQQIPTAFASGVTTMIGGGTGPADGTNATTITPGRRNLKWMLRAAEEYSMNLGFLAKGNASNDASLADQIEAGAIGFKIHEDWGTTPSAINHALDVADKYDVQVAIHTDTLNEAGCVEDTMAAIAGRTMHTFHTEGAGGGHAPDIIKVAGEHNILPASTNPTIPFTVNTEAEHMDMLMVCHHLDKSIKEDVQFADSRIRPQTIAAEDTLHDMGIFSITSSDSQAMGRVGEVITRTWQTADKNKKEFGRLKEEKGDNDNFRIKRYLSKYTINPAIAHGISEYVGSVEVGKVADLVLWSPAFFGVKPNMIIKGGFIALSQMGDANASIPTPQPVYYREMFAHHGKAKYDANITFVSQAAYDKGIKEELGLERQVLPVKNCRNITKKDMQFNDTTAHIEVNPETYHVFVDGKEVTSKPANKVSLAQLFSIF
Assay: Urease inhibition in whole cells of H. pylori J99
Type: cell-based
Details: cells grown with urea; 2 h of preincubation with inhibitors in PBS under microaerobic conditions; read-out: IC502h PBS
pIC50: −log10 of the molar value.
Assignment: determine reported pIC50 for the given compounds.

>  <MOL>
NCP(=O)(O)CNCc1ccccc1

>  <pIC50>
< 2.70

$$$$
>  <MOL>
NCP(=O)(O)CN1CCCCC1

>  <pIC50>
< 2.70

$$$$
>  <MOL>
CCN(CC)CP(=O)(O)CN

>  <pIC50>
< 2.70

$$$$
>  <MOL>
NCP(=O)(O)CNC1CCCCC1

>  <pIC50>
< 2.70

$$$$
>  <MOL>
CC(C)CNCP(=O)(O)CN

>  <pIC50>
2.95

$$$$

Answer for every listed entry: what is its pIC50? The entries follow.
1. CNCP(C)(=O)O
2. CN(Cc1ccccc1)CP(=O)(O)CN
3. NCP(=O)(O)CN
4. CCCCNCP(=O)(O)CN
5. O=P(O)(CNCc1ccccc1)CNCc1ccccc1

[3.33, "< 2.70", "< 2.70", 3.09, "< 2.70"]

# get_value(readout='pIC50', item= CN(C)CP(=O)(O)CN(C)C )
< 2.70

* * *

Molecular target: urease in intact H. pylori J99 (Helicobacter pylori, UniProt P69997)
Construct: In the intact H. pylori J99 cells, the urease susceptibility profile was similar to that of E. coli (pGEM::ureOP); endogenous in cells
Assay: Urease inhibition in whole cells of H. pylori J99
Format: cell-based
Conditions: cells grown with urea; without preincubation; read-out: IC500
METRIC_NAME: IC50 (µM)
Answers are plain numbers, in µM.

>  <MOL>
CCCCCCCNCP(=O)(O)CN

>  <IC50 / µM>
942

$$$$
>  <MOL>
CCCNCP(=O)(O)CN

>  <IC50 / µM>
1500

$$$$

# get_value(readout='IC50', item= CNCP(=O)(O)CO )
465
